# Assay system: T1, Monomeric human CD48-mmH (human)
# T1 chain: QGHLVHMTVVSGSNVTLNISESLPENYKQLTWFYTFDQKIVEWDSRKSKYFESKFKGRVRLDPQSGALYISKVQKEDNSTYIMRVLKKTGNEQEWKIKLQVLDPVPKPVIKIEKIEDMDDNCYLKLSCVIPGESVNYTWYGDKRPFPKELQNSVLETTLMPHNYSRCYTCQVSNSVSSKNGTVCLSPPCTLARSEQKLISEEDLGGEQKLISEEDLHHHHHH
# Test description: SPR (Biacore), antibody captured by anti-Fc, CD48 in solution, 37 C
Quantity: koff
Write the numeric value and follow it with the unit.

Some entries whose results are on file:
{"columns": ["Binder", "koff"],
 "data": [
  ["H4H1763N (antibody, V domains shown, Human IgG4 Fc (H4H)) VH: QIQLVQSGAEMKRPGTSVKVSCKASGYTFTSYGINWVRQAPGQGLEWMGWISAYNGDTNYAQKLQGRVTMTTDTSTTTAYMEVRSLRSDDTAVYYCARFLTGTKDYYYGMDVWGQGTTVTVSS VL: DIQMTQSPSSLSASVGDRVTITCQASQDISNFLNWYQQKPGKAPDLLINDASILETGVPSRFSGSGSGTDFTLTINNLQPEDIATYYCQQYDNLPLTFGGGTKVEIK", "0.0169 s⁻¹"],
  ["H2M1763N (antibody, mouse IgG2, V domains shown, Human variable domains, mouse IgG2 Fc (H2M)) VH: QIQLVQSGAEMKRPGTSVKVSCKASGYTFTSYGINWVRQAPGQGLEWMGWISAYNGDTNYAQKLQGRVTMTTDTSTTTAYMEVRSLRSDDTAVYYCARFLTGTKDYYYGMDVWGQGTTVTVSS VL: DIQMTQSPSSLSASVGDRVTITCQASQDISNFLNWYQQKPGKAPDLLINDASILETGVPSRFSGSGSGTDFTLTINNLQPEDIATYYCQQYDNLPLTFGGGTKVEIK", "0.0201 s⁻¹"]
]}

Next, consider the following binder.
Prompt: Using the record for H4H1775P (antibody, human IgG4, V domains shown, Human IgG4 Fc (H4H)) VH: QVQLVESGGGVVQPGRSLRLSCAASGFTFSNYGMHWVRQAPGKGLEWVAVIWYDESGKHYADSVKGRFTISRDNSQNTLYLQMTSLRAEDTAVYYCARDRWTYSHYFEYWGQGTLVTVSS VL: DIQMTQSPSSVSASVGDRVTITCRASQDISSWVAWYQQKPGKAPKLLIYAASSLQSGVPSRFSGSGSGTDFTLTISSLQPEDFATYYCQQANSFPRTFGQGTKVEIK , report its koff.
Response: 9.48e-05 s⁻¹
